assay protocol: Cytotoxicity against human HuH7 cells assessed as cell viability at 50 uM after 24 hrs
API: label(entry) gives yes if the entry's viability at 24 h, 50 µM is strictly smaller than 90%; on equality or larger values it gives no.

// below: answered compounds
[[record]]
compound = "CC(=O)OC[C@]12CC[C@]3(C(C)C)C1=C1[C@H](C[C@@H]4[C@@]5(C)CC[C@H](OC(C)=O)C(C)(C)[C@@H]5CC[C@@]4(C)[C@]1(C)CC2)n1c(=O)n(Cc2ccccc2)c(=O)n13"
class_assignment = "no"

[[record]]
compound = "CCC(=O)OC[C@]12CC[C@]3(C(C)C)C1=C1[C@H](C[C@@H]4[C@@]5(C)CC[C@H](OC(=O)CC)C(C)(C)[C@@H]5CC[C@@]4(C)[C@]1(C)CC2)n1c(=O)n(C)c(=O)n13"
class_assignment = "yes"

[[record]]
compound = "C=C(C)[C@@H]1CC[C@]2(COC(=O)CCC(C)=O)CC[C@]3(C)[C@H](CC[C@@H]4[C@@]5(C)CC[C@H](OC(=O)CCC(C)=O)C(C)(C)[C@@H]5CC[C@]43C)[C@@H]12"
class_assignment = "no"


Lookup: Consider the compound `COc1cccc(-n2c(=O)n3n(c2=O)[C@]2(C(C)C)CC[C@]4(COC(C)=O)CC[C@]5(C)C(=C42)[C@@H]3C[C@@H]2[C@@]3(C)CC[C@H](OC(C)=O)C(C)(C)[C@@H]3CC[C@]25C)c1` . Is its viability at 24 h, 50 µM strictly less than 90%?
Found: no

Lookup: Consider the compound `C=C(C)[C@@H]1CC[C@]2(C#N)CC[C@]3(C)[C@H](CC[C@@H]4[C@@]5(C)CC/C(=N\OC(C)=O)C(C)(C)[C@@H]5CC[C@]43C)[C@@H]12` . Is its viability at 24 h, 50 µM strictly less than 90%?
Found: yes

Lookup: Consider the compound `C=C(C)[C@@H]1CC[C@]2(COC(C)=O)CC[C@]3(C)[C@H](CC[C@@H]4[C@@]5(C)CCC(=O)C(C)(C)[C@@H]5CC[C@]43C)[C@@H]12` . Is its viability at 24 h, 50 µM strictly less than 90%?
Found: yes

Lookup: Consider the compound `CC(=O)OC[C@]12CC[C@]3(C(C)C)C1=C1[C@H](C[C@@H]4[C@@]5(C)CC[C@H](OC(C)=O)C(C)(C)[C@@H]5CC[C@@]4(C)[C@]1(C)CC2)n1c(=O)n(-c2cccc(Cl)c2)c(=O)n13` . Is its viability at 24 h, 50 µM strictly less than 90%?
Found: no

Lookup: Consider the compound `CC(C)[C@@]12CC[C@]3(COC(=O)c4ccccc4)CC[C@]4(C)C(=C31)[C@H](C[C@@H]1[C@@]3(C)CC[C@H](OC(=O)c5ccccc5)C(C)(C)[C@@H]3CC[C@]14C)n1c(=O)n(C)c(=O)n12` . Is its viability at 24 h, 50 µM strictly less than 90%?
Found: no

Lookup: Consider the compound `CCCC(=O)OC[C@]12CC[C@]3(C(C)C)C1=C1[C@H](C[C@@H]4[C@@]5(C)CC[C@H](OC(=O)CCC)C(C)(C)[C@@H]5CC[C@@]4(C)[C@]1(C)CC2)n1c(=O)n(C)c(=O)n13` . Is its viability at 24 h, 50 µM strictly less than 90%?
Found: no

Lookup: Consider the compound `C=C(C)[C@@H]1CC[C@]2(C(=O)N[C@@H](CC(=O)OC)C(=O)OC)CC[C@]3(C)[C@H](CC[C@@H]4[C@@]5(C)CCC(=O)C(C)(C)[C@@H]5CC[C@]43C)[C@@H]12` . Is its viability at 24 h, 50 µM strictly less than 90%?
Found: yes
